Assay: protein stability index of a GFP-peptide fusion (GPS, HEK-293T) (PSI 1-6); higher = more stable;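 further: 24-mer peptide tiles fused after GFP, lentivirally expressed, FACS-sorted into six equal bins by GFP/DsRed ratio, decoded by Illumina sequencing, PSI is the read-weighted mean bin number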
Conditions: treatment: DMSO; c terminus: a fixed tail appended
Decide by protein stability index: equal to or exceeding 3 means y, less means n.

Prompt: State whether the measured protein stability index reaches 3, counting equality as reaching it, for EELRKFSSLCYKQRIKSQERETEA [MOG]
Completion: y

Prompt: Entry PTPANEERRGGLPPLPLHPGGDQG [WAS] please
Completion: y

Prompt: Entry GHRYPCFFNTLHVGGTIRTCQKFL [POP5] please
Completion: n

Prompt: Entry LLRPPVAAFVRAQADLLAHLVPEP [DNAAF3] please
Completion: n

Prompt: Entry RENKRMADSLASKVTRLKSLALDI [BET1L] please
Completion: n

Prompt: Entry VVIRDIDERAMELLIDFAYTSQIT [KLHL20] please
Completion: y

Prompt: Entry VELVNAACNFEPHESFFSLFSDPR [ZER1] please
Completion: n

Prompt: Entry EAYTKICDPGLTAFEPEALGNLVE [CAMK2D] please
Completion: y

Prompt: Entry FDCPSELQHTQELFPQWHLPIKIA [STEAP1] please
Completion: n

Prompt: Entry QAGPEATTSDPQDLDMKKHRCKCC [PALM] please
Completion: y

Prompt: Entry DGGSSLASGSTQRQPPPPAPQHPQ [FBXO28] please
Completion: y

Prompt: Entry ESLPVSLGPESWQQIAMDPEEVKS [BCL2L13] please
Completion: y

Prompt: Entry AQQLEEEGPMEEEEAQPMAAPEGK [EID1] please
Completion: y

Prompt: Entry WAIPNRQINDGMGGDGDDMEIFME [BEX3] please
Completion: y

Prompt: Entry VELIPEKKGLFLKHVEYEVSSQRF [SNX8] please
Completion: n

Prompt: Entry SPINSPARGTPSPKRMPSGRGGRD [FSD1] please
Completion: y

Prompt: Entry MTTDFDLSLDNSPLLQSIHQLDFV [TRIM9] please
Completion: n

Prompt: Entry GWETRGDRKARKPLVEKKRRARIN [HES6] please
Completion: y

Prompt: Entry EDRLSLKFLPSSEEDNDDAKILPS [DRICH1] please
Completion: y

Prompt: Entry VQKLVKVCTDTDRWSLISLSNKNG [TENT5C] please
Completion: n

Prompt: Entry MQLKSPMPSSTTQKDSYQPPGNVY [SPAG8] please
Completion: y

Prompt: Entry SPAGELPKTVQQPTESEPVTINIQ [MATN2] please
Completion: y

Prompt: Entry NIVEYLIQEQPGQEQVAGGEAQPG [FEM1A] please
Completion: y

Prompt: Entry ESSSDSGSSDSEEERATRLAELQE [BRD3] please
Completion: y

Prompt: Entry REWYYGNVTRHQAECALNERGVEG [NCK2] please
Completion: y

Prompt: Entry KMVSAEISENRKRQWPTKSQTDRG [SDE2] please
Completion: y

Prompt: Entry YHSPELTTPPGHGTLDNSKSMKPY [NEUROD6] please
Completion: n

Measured values drawn from the supplement of paper PMC10567573 for this set.
